Reference source: patent US9365541B2

As an illustration, consider measured IC50 for compounds on UniProt Q13547.

Sample records with IC50:
CNC(=O)CCCCC[C@H](NC(=O)C1(C)CCCO1)c1ncc(-c2ccc(-c3ccn(C)n3)cc2)[nH]1 (stereo partly shown) :: > 5000 nM
CNC(=O)CCCCC[C@H](NC(=O)c1cncs1)c1ncc(-c2cccc3c2OCCO3)[nH]1 :: 1000 to 5000 nM
CNC(=O)CCCCC[C@H](NC(=O)Cn1cnnc1)c1ncc(-c2cc3ccccc3nc2OC)[nH]1 :: 1000 to 5000 nM
CNC(=O)CCCCC[C@H](NC(=O)Cn1ccnn1)c1ncc(-c2cc3ccccc3nc2OC)[nH]1 :: 1000 to 5000 nM
CNC(=O)CCCCC[C@H](NC(=O)c1cncs1)c1ncc(-c2ccc(-c3cccs3)cc2)[nH]1 :: 1000 to 5000 nM

Look up IC50: CNC(=O)CCCCC[C@H](NC(=O)CN1CCOCC1)c1ncc(-c2ccc3ccccc3c2)[nH]1
1000 to 5000 nM

Which measured IC50 value corresponds to CNC(=O)CCCCC[C@H](NC(=O)C12CCN(CC1)CC2)c1ncc(-c2ccc3cc(F)ccc3c2)[nH]1 ?
< 1000 nM

----------
// reported IC50 per item
Target: human HDAC1 (Homo sapiens)
Sequence (Q13547 whole entry): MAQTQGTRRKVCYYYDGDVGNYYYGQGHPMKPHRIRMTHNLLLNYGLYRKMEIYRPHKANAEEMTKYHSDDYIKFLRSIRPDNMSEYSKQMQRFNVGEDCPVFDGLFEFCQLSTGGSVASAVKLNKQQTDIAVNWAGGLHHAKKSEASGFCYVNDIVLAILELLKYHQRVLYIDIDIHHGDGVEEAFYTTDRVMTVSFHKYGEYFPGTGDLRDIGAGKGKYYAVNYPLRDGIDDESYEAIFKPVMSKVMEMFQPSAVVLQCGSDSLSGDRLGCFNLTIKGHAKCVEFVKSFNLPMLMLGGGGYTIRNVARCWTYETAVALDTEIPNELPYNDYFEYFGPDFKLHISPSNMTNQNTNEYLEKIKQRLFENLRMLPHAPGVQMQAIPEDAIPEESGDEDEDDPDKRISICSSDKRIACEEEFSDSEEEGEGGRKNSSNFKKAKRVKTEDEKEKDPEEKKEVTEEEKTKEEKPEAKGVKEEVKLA

CNC(=O)CCCCC[C@H](NC(=O)Cc1csc2nccn12)c1ncc(-c2ccc(-c3ccn(C)n3)cc2)[nH]1 :: 1 to 5 µM

May I ask what IC50 has been recorded for CNC(=O)CCCCC[C@H](NC(=O)CCc1cnn(C)c1)c1ncc(-c2ccc3ccccc3c2)[nH]1 ?
< 1 µM

Look up IC50 for this molecule: CNC(=O)CCCCC[C@H](NC(=O)C1CCN(C)CC1)c1ncc(-c2ccc(-n3cccn3)cc2)[nH]1
> 5 µM

Dear colleague, I am looking for the recorded IC50 of the following molecule: CNC(=O)CCCCC[C@H](NC(=O)c1cncs1)c1ncc(-c2ccc3occc3c2)[nH]1
> 5 µM

----------
Target: UniProt Q13547
pIC50: −log10 of the molar value.
Reported pIC50 values for a set of molecules

CNC(=O)CCCCC[C@H](NC(=O)c1cccc(-n2cccn2)c1)c1ncc(-c2cc3ccccc3nc2OC)[nH]1 :: < 5.30
CNC(=O)CCCCC[C@H](NC(=O)c1cncs1)c1ncc(-c2ccc3c(ccn3C)c2)[nH]1 :: > 6.00
COc1ccc2[nH]c(C)c(CC(=O)N[C@@H](CCCCCC(N)=O)c3nnc(-c4ccc5ccccc5c4)[nH]3)c2c1 :: > 6.00
CNC(=O)CCCCC[C@H](NC(=O)c1cnsc1)c1ncc(-c2ccc(-n3cccn3)cc2)[nH]1 :: 5.30 to 6.00
CNC(=O)CCCCC[C@H](NC(=O)C12CCN(CC1)CC2)c1ncc(-c2cc3ccccc3nc2OC)[nH]1 :: > 6.00
CNC(=O)CCCCC[C@H](NC(=O)Cn1cnc2ccccc21)c1ncc(-c2ccc3ccccc3c2)[nH]1 :: > 6.00

For CNC(=O)CCCCC[C@H](NC(=O)c1cncs1)c1ncc(-c2ccc(-c3cc(C)[nH]n3)cc2)[nH]1 , what is its reported pIC50?
5.30 to 6.00

Entry CNC(=O)CCCCC[C@H](NC(=O)c1cncs1)c1ncc(-c2cc3ccccc3[nH]c2=O)[nH]1 has what pIC50?
> 6.00

----------
Each entry below carries its recorded IC50.
Tested on: HDAC1 (deacetylase activity inside HeLa cells)
Test: Cell based HDAC1 inhibition (HDAC HeLa Cell based assay)
Design: species or system human

// known answers, use as guide
CNC(=O)CCCCC[C@H](NC(=O)c1cncs1)c1ncc(-c2ccc(-c3cncs3)cc2)[nH]1 :: > 5 µM
CNC(=O)CCCCC[C@H](NC(=O)c1cnn(C(C)C)c1)c1ncc(-c2ccc3cc(OC)ncc3c2)[nH]1 :: 1 to 5 µM
CNC(=O)CCCCC[C@H](NC(=O)c1cncs1)c1ncc(-c2ccc(-c3ccnn3C)cc2)[nH]1 :: > 5 µM

Find the recorded IC50 belonging to CNC(=O)CCCCC[C@H](NC(=O)c1cncs1)c1ncc(-c2ccc(-c3cnn(C)c3)cc2)[nH]1 and report it.
> 5 µM

Given the entry CNC(=O)CCCCC[C@H](NC(=O)c1cncs1)c1ncc(-c2ccc(-c3nccs3)cc2)[nH]1 , report its measured IC50.
> 5 µM

Look at this compound and give its reported IC50. CNC(=O)CCCCC[C@H](NC(=O)c1cncs1)c1ncc(-c2ccc(-c3cscn3)cc2)[nH]1
> 5 µM
